The reported measurements were obtained from patent US11414428B2.

system_name: Recombinant human IDO1 (rhIDO1) (Homo sapiens (Human))
Sequence (P14902 whole entry): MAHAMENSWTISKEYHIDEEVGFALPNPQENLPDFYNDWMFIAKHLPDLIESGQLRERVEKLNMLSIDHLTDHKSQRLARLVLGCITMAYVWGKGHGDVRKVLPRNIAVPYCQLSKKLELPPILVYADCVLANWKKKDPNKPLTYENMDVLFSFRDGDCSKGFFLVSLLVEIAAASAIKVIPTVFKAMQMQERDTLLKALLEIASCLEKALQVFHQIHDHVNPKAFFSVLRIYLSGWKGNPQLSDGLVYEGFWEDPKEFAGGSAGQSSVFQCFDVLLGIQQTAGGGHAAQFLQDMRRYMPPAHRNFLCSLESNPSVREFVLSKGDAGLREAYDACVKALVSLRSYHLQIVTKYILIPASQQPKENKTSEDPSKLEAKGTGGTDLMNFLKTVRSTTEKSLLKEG
measurement_notes: Enzymatic assay for IDO1 activity
recorded_conditions: rhIDO1 9 nM, 80 μM TRP, 37° C. 30 min
pIC50: −log10 of the molar value.
Recorded pIC50 for the following compounds
result_type: pIC50

{"compound": "Cc1nc2onc(NC(=O)Nc3ccccc3Cl)c2c(C)c1Cl [Compound 6]", "recorded_measurement": "< 4.00"}
{"compound": "Cc1nc2onc(NC(=O)Nc3ccc(OC(F)(F)F)cc3)c2c(C)c1Cl [Compound 2]", "recorded_measurement": "< 4.00"}
{"compound": "Cc1nc2onc(NC(=O)Nc3cccc(Cl)c3)c2c(C)c1Cl [Compound 7]", "recorded_measurement": "< 4.00"}
{"compound": "Cc1nc2onc(NC(=O)Nc3cccc(C(F)(F)F)c3)c2c(C)c1Cl [Compound 15]", "recorded_measurement": "< 4.00"}
{"compound": "Cc1nc2onc(NC(=O)Nc3ccccc3OC(F)(F)F)c2c(C)c1Cl [Compound 9]", "recorded_measurement": "< 4.00"}
{"compound": "Cc1nc2onc(NC(=O)Nc3ccc(C#N)cc3)c2c(C)c1Cl [Compound 3]", "recorded_measurement": "4.00 to 5.00"}
{"compound": "Cc1nc2onc(NC(=O)Nc3cccc(OC(F)(F)F)c3)c2c(C)c1Cl [Compound 10]", "recorded_measurement": "< 4.00"}
{"compound": "Cc1nc2onc(NC(=O)Nc3ccccc3)c2c(C)c1Cl [Compound 17]", "recorded_measurement": "4.00 to 5.00"}
